List of pKd values.
- system_name: T1, human BR3 extracellular domain (human, UniProt Q96RJ3 1-61)
- T1 construct: biotinylated where used as tracer; also called hBR3-ECD; BR3-ECD
- procedure_details: SPR, BR3 ECD on chip;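 further: Anti-BR3 antibodies passed over the chip at high flow in PBS with 0.05% polysorbate 20, on and off rates fitted together globally to a 1:1 binding model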
pKd: −log10 of the molar value.

# binder, pKd
rows = [
    ("murine monoclonal antibody 2.1 (antibody, V domains shown, mouse hybridoma IgG; also called 2.1 IgG; mu2.1) VH: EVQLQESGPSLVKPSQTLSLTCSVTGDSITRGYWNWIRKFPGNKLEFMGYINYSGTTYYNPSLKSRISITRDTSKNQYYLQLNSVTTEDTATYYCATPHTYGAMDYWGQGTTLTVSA VL: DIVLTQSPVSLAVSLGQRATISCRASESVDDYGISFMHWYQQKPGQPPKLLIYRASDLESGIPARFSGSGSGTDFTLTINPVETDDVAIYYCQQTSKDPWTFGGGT", 10.30),
    ("Hu9.1-RF Fab (Fab, V domains shown) VH: EVQLVESGGGLVQPGGSLRLSCAASGFTVTAYYMSWVRQAPGKGLEWVGFIRDKANGYTTEYNPSVKGRFTISRDTSKNTFYLQMNSLRAEDTAVYYCAQVRRALDYWGQGTLVTVSS VL: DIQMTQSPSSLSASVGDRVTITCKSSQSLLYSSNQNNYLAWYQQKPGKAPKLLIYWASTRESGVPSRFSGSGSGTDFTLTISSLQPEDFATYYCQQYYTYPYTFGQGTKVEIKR", 9.85),
]
